- ASSAYED SYSTEM: Recombinant human LTC4 synthase (Homo sapiens, UniProt Q16873)
- PROTOCOL: LTC4 synthase in vitro assay (LTA4 to LTC4, HTRF detection)
- Procedure: In the assay, LTC4 synthase catalyses the reaction where the substrate LTA4 is converted to LTC4. Recombinant human LTC4 synthase is expressed in Piccia pastoralis and the purified enzyme is dissolved in 25 mM tris-buffer pH 7.8 supplemented with 0.1 mM glutathione (GSH) and stored at −80° C. […] 1.48 μL LTC4 synthase in PBS with 5 mM GSH. […] 10 μL of the incubation mixture is analysed using homogenous time resolved fluorescent (HTRF) detection.
VALUE TYPE: pIC50
Please treat pIC50 as minus the base-10 logarithm of the molar concentration.

Examples from the recorded data:
• COc1cccc(C(=O)c2ccc(C(=O)c3ccc(N(C)c4ccc(Cl)cc4)cn3)cc2C(=O)O)c1 = 7.44
• CN(c1ccc(Cl)cc1)c1ccc(C(=O)c2ccc(C(=O)C3(c4ccccc4)CC3)c(C(=O)O)c2)nc1 = 7.49

// query Hello, please tell me recorded pIC50 for this one: O=C(c1ccc(Oc2ccccc2Oc2ccccn2)c(C(=O)O)c1)c1ccc(N(CC2CC2)c2ccc(Cl)cc2)cn1
// result 7.24

// query Hello, please tell me recorded pIC50 for this one: CN(c1ccc(Cl)cc1)c1ccc(C(=O)c2ccc(Oc3cccnc3)c(C(=O)O)c2)nc1
// result 5.94

====

- ASSAYED SYSTEM: Recombinant human LTC4 synthase (Homo sapiens)
- Sequence (Q16873 1-150): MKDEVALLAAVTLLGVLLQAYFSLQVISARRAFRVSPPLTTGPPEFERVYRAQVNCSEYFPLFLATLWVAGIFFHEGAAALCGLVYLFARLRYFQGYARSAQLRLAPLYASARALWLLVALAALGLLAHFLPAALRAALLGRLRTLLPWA
- PROTOCOL: LTC4 synthase in vitro assay (LTA4 to LTC4, HTRF detection)
Quick reference for pIC50 among some compounds
Please treat pIC50 as minus the base-10 logarithm of the molar concentration.

Examples from the recorded data:
- O=C(Nc1ccc(C(=O)c2ccc(N(CC3CC3)c3ccc(Cl)cc3)cn2)cc1C(=O)O)c1ccc2c(c1)OCO2 [3:9]: 7.68
- CN(c1ccc(Cl)cc1)c1ccc(C(=O)c2ccc(-n3nc(-c4cccc(Cl)c4)cc3C(F)(F)F)c(C(=O)O)c2)nc1 [18:5]: 6.94
- CCOc1ccc(C(=O)c2ccc(C(=O)c3ccc(N(C)c4ccc(Cl)cc4)cn3)cc2C(=O)O)cc1 [5:9]: 7.00
- O=C(c1ccc(Oc2ccccc2)c(C(=O)O)c1)c1ccc(N(CC2CCCC2)c2ccc(Cl)cc2)cn1 [1:6]: 7.21
- CN(c1ccc(Cl)cc1)c1ccc(C(=O)c2ccc(Nc3ccc(C(O)(C(F)(F)F)C(F)(F)F)cc3)c(C(=O)O)c2)nc1 [2:17]: 6.86

// query Hello, please tell me recorded pIC50 for this one: O=C(c1ccc(N(CC2CC2)c2ccc(Cl)cc2)cc1)c1cc(C(=O)O)c(Oc2ccccc2)cn1 [8:1]
// result 7.09

// query Hello, please tell me recorded pIC50 for this one: Cc1cn(-c2ccc(C(=O)c3ccc(N(C)c4ccc(Cl)cc4)cn3)cc2C(=O)O)c(-c2ccccc2)n1 [19:1]
// result 6.63

====

Quick reference for inhibition at 10 µM among some molecules
- ASSAYED SYSTEM: Recombinant human LTC4 synthase (Homo sapiens, UniProt Q16873)
- Construct: made in house; host or cells: Pichia pastoris ('Piccia pastoralis' [sic])
- Sequence (Q16873 1-150): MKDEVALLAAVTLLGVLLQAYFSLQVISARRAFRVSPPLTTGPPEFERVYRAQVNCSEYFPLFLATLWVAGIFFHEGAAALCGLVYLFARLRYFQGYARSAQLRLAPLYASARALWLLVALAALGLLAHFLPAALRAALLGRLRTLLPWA
- PROTOCOL: LTC4 synthase in vitro assay (LTA4 to LTC4, HTRF detection)
- Assay type: biochemical
- CONDITION DESCRIPTION: 5 min; total concentration of title compound in the assay 10 μM
The answer is to be given in %; state only the numeric part.

Examples from the recorded data:
• CN(c1ccc(C(F)(F)F)cc1)c1ccc(C(=O)c2ccc(Oc3ccccc3)c(C(=O)O)c2)nc1 [1:15] = 99
• CC(C)(C)c1ccc(N(CC2CC2)c2ccc(C(=O)c3ccc(Oc4ccccc4)c(C(=O)O)c3)nc2)cc1 [1:20] = 100
• O=C(c1ccc(Oc2ccccc2)c(C(=O)O)c1)c1ccc(N(CC2CC2)c2cccc(C(F)(F)F)c2)cn1 [1:14] = 100
• C#CCN(c1ccc(Cl)cc1)c1ccc(C(=O)c2ccc(Oc3ccccc3)c(C(=O)O)c2)nc1 [1:9] = 99
• CN(c1ccc(Cl)cc1)c1ccc(C(=O)c2ccc(NC(=O)c3cc(Cl)ccc3O)c(C(=O)O)c2)nc1 [3:2] = 100

// query Hello, please tell me recorded inhibition at 10 µM for this one: O=C(c1ccc(Oc2ccccc2)c(C(=O)O)c1)c1ccc(N(CC2CCCC2)c2ccc(Cl)cc2)cn1 [1:6]
// result 100

// query Hello, please tell me recorded inhibition at 10 µM for this one: O=C(c1ccc(Oc2ccccc2)c(C(=O)O)c1)c1ccc(N(CC2CC2)c2ccc(C(F)(F)F)cc2)cn1 [1:18]
// result 100

// query Hello, please tell me recorded inhibition at 10 µM for this one: CN(c1ccc(Cl)cc1)c1ccc(C(=O)c2ccc(Nc3ccc(C(F)(F)F)cc3)c(C(=O)O)c2)nc1 [2:1]
// result 99

// query Hello, please tell me recorded inhibition at 10 µM for this one: CCOCCN(c1ccc(Cl)cc1)c1ccc(C(=O)c2ccc(Oc3ccccc3)c(C(=O)O)c2)nc1 [1:7]
// result 99

====

- ASSAYED SYSTEM: Recombinant human LTC4 synthase (Homo sapiens, UniProt Q16873)
- PROTOCOL: LTC4 synthase in vitro assay (LTA4 to LTC4, HTRF detection)
VALUE TYPE: log10(IC50) (log10 of the value in nM)
Heads up: the numbers are on a log10 scale; they represent IC50 in nM.

Examples from the recorded data:
- CN(c1ccc(Cl)cc1)c1ccc(C(=O)c2ccc(NC(=O)c3ccccc3OC(F)(F)F)c(C(=O)O)c2)nc1: 2.02
- CCN(c1ccc(C(C)(C)C)cc1)c1ccc(C(=O)c2ccc(Oc3ccccc3)c(C(=O)O)c2)nc1: 3.09
- CN(c1ccc(Cl)cc1)c1ccc(C(=O)c2ccc(NC(=O)c3ccc(S(C)(=O)=O)cc3)c(C(=O)O)c2)nc1: 1.83
- O=C(c1ccc(Oc2ccccc2)c(C(=O)O)c1)c1ccc(OCc2cccc(Cl)c2)cn1: 2.16
- CN(c1ccc(C(=O)c2ccc(Oc3ccccc3)c(C(=O)O)c2)nc1)c1ccc(F)c(F)c1: 2.59
- CN(c1ccc(Cl)cc1)c1ccc(C(=O)c2ccc(Nc3ccccc3)c(C(=O)O)c2)nc1: 2.14
- CN(c1ccc(Cl)cc1)c1ccc(C(=O)c2ccc(C(=O)c3cccs3)c(C(=O)O)c2)nc1: 2.02
- CN(c1ccc(Cl)cc1)c1ccc(C(=O)c2ccc(-n3cccc3-c3ccccc3)c(C(=O)O)c2)nc1: 1.81
- O=C(c1ccc(Oc2ccccc2)c(C(=O)O)c1)c1ncc(N(CC2CC2)c2ccc(Cl)cc2)cn1: 2.12
- CN(c1ccc(Cl)cc1)c1ccc(C(=O)c2ccc(NS(=O)(=O)c3ccc(Cl)cc3)c(C(=O)O)c2)nc1: 1.52

// query Hello, please tell me recorded log10(IC50) for this one: O=C(c1ccc(Oc2ccccc2)c(C(=O)O)c1)c1ccc(N(CC2CC2)c2ccc(C(F)(F)F)cc2)cn1
// result 2.15

// query Hello, please tell me recorded log10(IC50) for this one: CN(c1ccc(Cl)cc1)c1ccc(C(=O)c2ccc(C(=O)c3ccccc3)c(C(=O)O)c2)nc1
// result 1.86

// query Hello, please tell me recorded log10(IC50) for this one: CN(c1ccc(Cl)cc1)c1ccc(C(=O)c2ccc(OCc3ccccc3Cl)c(C(=O)O)c2)nc1
// result 2.26

// query Hello, please tell me recorded log10(IC50) for this one: O=C(c1ccc(-n2nncc2-c2cccc(Cl)c2)c(C(=O)O)c1)c1ccc(N(CC2CC2)c2ccc(Cl)cc2)cn1
// result 1.20

// query Hello, please tell me recorded log10(IC50) for this one: O=C(c1ccc(Oc2ccccc2)c(C(=O)O)c1)c1ccc(OCc2ccc(C(F)(F)F)cc2)cn1
// result 2.55

// query Hello, please tell me recorded log10(IC50) for this one: CN(c1ccc(Cl)cc1)c1ccc(C(=O)c2ccc(NC(=O)c3ccc(S(=O)(=O)N(C)C)cc3)c(C(=O)O)c2)nc1
// result 1.61

====

- ASSAYED SYSTEM: Recombinant human LTC4 synthase (Homo sapiens, UniProt Q16873)
- PROTOCOL: LTC4 synthase in vitro assay (LTA4 to LTC4, HTRF detection)
- Protocol: In the assay, LTC4 synthase catalyses the reaction where the substrate LTA4 is converted to LTC4. Recombinant human LTC4 synthase is expressed in Piccia pastoralis and the purified enzyme is dissolved in 25 mM tris-buffer pH 7.8 supplemented with 0.1 mM glutathione (GSH) and stored at −80° C. […] 1.48 μL LTC4 synthase in PBS with 5 mM GSH. […] 10 μL of the incubation mixture is analysed using homogenous time resolved fluorescent (HTRF) detection.
Quick reference for IC50 among some molecules
The answer is to be given in nM; state only the numeric part.

Examples from the recorded data:
• CN(c1ccc(Cl)cc1)c1ccc(C(=O)c2ccc(NC(=O)c3ccc4c(c3)OCO4)c(C(=O)O)c2)nc1 [3:6] = 11
• C=CCN(c1ccc(C(F)(F)F)cc1)c1ccc(C(=O)c2ccc(Oc3ccccc3)c(C(=O)O)c2)nc1 [1:13] = 290
• O=C(c1ccc(Oc2ccccc2)c(C(=O)O)c1)c1ccc(N(CC2CC2)c2cccc(C(F)(F)F)c2)cn1 [1:14] = 197
• CN(c1ccc(Cl)cc1)c1ccc(C(=O)c2ccc(C(=O)c3ccc([N+](=O)[O-])cc3)c(C(=O)O)c2)nc1 [5:12] = 202

// query Hello, please tell me recorded IC50 for this one: O=C(c1ccc(Oc2ccccc2Oc2cccnc2)c(C(=O)O)c1)c1ccc(N(CC2CC2)c2ccc(Cl)cc2)cn1 [1:43]
// result 61

// query Hello, please tell me recorded IC50 for this one: CN(c1ccc(Cl)cc1)c1ccc(C(=O)c2ccc(-c3ccccc3-c3ccccc3)c(C(=O)O)c2)nc1 [21:8]
// result 244

// query Hello, please tell me recorded IC50 for this one: CN(c1ccc(Cl)cc1)c1ccc(C(=O)c2ccc(C(=O)C(C)(C)C)c(C(=O)O)c2)nc1 [5:13]
// result 491

// query Hello, please tell me recorded IC50 for this one: COc1cccc(CNc2ccc(C(=O)c3ccc(N(C)c4ccc(Cl)cc4)cn3)cc2C(=O)O)c1 [2:7]
// result 133
